# targetUnderTest: human factor IIa (human alpha-thrombin) (Homo sapiens)
Where a name gives a salt, the structure may show the parent alone.
valueType: pKi
Numbers only, as −log10 of the molar value.

Reference set, count: 5
CC(=O)N1CCC(N(C)C(=O)C[C@@H](NS(=O)(=O)Cc2ccccc2)C(=O)N2CCC[C@H]2C(=O)NCc2cc(Cl)ccc2CN)CC1 [Compound 2.2]	8.51
NCc1ccc(Cl)cc1CNC(=O)[C@@H]1CCN1C(=O)[C@@H](CC(=O)N1CCNCC1)NS(=O)(=O)Cc1ccccc1 [Compound 2.50, TFA]	7.85
NCc1ccc(Cl)cc1CNC(=O)[C@@H]1C[C@H](N)CN1C(=O)[C@@H](CC(=O)N1CCCCC1)NS(=O)(=O)Cc1ccccc1 [Compound 2.6]	9.74
NCc1ccc(Cl)cc1CNC(=O)[C@@H]1CCCN1C(=O)[C@@H](CC(=O)N1CCCCC1)NS(=O)(=O)Cc1ccccc1 [Compound 2.41]	9.96
NCc1ccc(Cl)cc1CNC(=O)[C@@H]1CCCN1C(=O)[C@@H](CC(=O)N1CCCC1)NS(=O)(=O)Cc1ccccc1 [Compound 2.8]	9.68

Give me pKi for each of these molecules, listed below.
1. CN(CC1CCOCC1)C(=O)C[C@@H](NS(=O)(=O)Cc1ccccc1)C(=O)N1CCC[C@H]1C(=O)NCc1cc(Cl)ccc1CN [Compound 2.47, TFA]
2. NCc1ccc(Cl)cc1CNC(=O)[C@@H]1CCN1C(=O)[C@@H](CC(=O)N1CCOCC1)NS(=O)(=O)Cc1ccccc1 [Compound 2.44]
3. NCc1ccc(Cl)cc1CNC(=O)[C@@H]1C[C@@H](N)CN1C(=O)[C@@H](CC(=O)N1CCNCC1)NS(=O)(=O)Cc1ccccc1 [Compound 2.5]

Found:
1: 9.49; 2: 8.40; 3: 7.74

Lookup: Could you share what pKi was measured for CN1CCN(C(=O)C[C@@H](NS(=O)(=O)Cc2ccccc2)C(=O)N2CCC[C@H]2C(=O)NCc2cc(Cl)ccc2CN)CC1 [Compound 2.18] , tested on human factor IIa (human alpha-thrombin) (Homo sapiens)?
Found: 8.82

* * *

# targetUnderTest: Human plasma kallikrein (h PK) (Homo sapiens, UniProt P03952)
# Sequence (P03952 391-638 limits assumed): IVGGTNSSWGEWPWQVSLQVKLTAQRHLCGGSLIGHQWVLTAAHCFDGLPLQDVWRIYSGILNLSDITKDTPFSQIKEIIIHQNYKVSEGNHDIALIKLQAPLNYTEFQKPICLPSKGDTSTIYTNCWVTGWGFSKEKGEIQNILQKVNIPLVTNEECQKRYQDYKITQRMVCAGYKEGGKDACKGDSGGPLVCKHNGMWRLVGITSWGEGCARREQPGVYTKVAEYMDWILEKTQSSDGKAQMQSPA
# Sequence (P03952 20-390 partner limits assumed): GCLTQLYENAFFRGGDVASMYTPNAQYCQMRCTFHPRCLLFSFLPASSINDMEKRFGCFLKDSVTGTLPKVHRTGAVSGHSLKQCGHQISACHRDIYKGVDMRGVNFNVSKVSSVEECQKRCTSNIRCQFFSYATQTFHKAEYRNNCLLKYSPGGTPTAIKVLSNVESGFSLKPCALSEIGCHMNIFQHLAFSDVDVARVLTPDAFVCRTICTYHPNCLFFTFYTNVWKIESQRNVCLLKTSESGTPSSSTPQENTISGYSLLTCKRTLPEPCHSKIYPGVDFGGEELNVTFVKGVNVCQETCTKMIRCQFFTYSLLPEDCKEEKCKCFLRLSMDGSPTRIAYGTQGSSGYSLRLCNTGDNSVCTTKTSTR
# assayProcedure: Inhibition of human plasma kallikrein (reference enzyme)
# measurementConditions: S2302 substrate
Structures can show the parent of a compound that is named as a salt.
valueType: Ki

Reference set, count: 5
NCc1ccc(Cl)cc1CNC(=O)[C@@H]1CCCN1C(=O)[C@@H](CC(=O)N1CC[C@H](N)C1)NS(=O)(=O)Cc1ccccc1	1690 nM
NCc1ccc(Cl)cc1CNC(=O)[C@@H]1C[C@H](N)CN1C(=O)[C@@H](CC(=O)N1CCNCC1)NS(=O)(=O)Cc1ccccc1	351 nM
O=C(NCc1cc(Cl)ccc1-n1cnnn1)[C@@H]1C[C@H](O)CN1C(=O)[C@@H](CCC(=O)N1CCOCC1)NS(=O)(=O)Cc1ccccc1	1200 nM
NCc1ccc(Cl)cc1CNC(=O)[C@@H]1CCCN1C(=O)[C@@H](CCC(=O)O)NS(=O)(=O)Cc1ccccc1	> 20000 nM
NCc1ccc(Cl)cc1CNC(=O)[C@@H]1CCCN1C(=O)[C@@H](CCC(=O)N1CCOCC1)NS(=O)(=O)Cc1ccccc1 [Compound 2.1, TFA]	1860 nM

Now for another entry.
Lookup: What value of measured Ki is listed for "NCc1ccc(Cl)cc1CNC(=O)[C@@H]1CCCN1C(=O)[C@@H](CC(=O)N1CCCC1)NS(=O)(=O)Cc1ccccc1" ?
Found: 337 nM

* * *

Reported Ki, UniProtKB P00747.
Sequence (P00747 581-810 limits assumed): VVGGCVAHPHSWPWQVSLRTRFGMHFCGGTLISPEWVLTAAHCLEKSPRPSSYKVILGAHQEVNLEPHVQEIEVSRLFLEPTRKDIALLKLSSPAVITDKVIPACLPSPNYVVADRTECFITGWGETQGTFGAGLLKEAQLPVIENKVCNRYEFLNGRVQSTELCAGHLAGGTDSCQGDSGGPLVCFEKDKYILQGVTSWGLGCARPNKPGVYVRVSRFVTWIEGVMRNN
Sequence (P00747 97-580 partner limits assumed): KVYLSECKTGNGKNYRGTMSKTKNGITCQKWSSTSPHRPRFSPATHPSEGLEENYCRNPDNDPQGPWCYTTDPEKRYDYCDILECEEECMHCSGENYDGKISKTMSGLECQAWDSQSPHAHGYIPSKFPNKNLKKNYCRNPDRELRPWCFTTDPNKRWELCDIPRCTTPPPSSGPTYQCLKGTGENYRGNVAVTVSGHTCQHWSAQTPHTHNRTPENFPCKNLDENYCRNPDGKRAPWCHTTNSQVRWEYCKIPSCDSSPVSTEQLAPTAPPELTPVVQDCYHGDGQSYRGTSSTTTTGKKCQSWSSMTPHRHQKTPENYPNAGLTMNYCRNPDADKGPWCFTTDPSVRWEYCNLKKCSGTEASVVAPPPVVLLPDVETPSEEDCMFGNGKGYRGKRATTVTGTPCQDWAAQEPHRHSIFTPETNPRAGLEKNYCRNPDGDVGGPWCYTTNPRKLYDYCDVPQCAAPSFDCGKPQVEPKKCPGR
Where a name gives a salt, the structure may show the parent alone.

N[C@H]1C[C@@H](C(=O)NCc2cc(Cl)ccc2-n2cnnn2)N(C(=O)[C@@H](CCC(=O)N2CCOCC2)NS(=O)(=O)Cc2ccccc2)C1 [Compound 2.23]	1.99 µM
CN(C(=O)C[C@@H](NS(=O)(=O)Cc1ccccc1)C(=O)N1CCC[C@H]1C(=O)NCc1cc(Cl)ccc1CN)C1CCNCC1 [Compound 2.3]	> 100 µM

Give me Ki for each of these compounds, listed below.
1. CN1CCN(C(=O)C[C@@H](NS(=O)(=O)Cc2ccccc2)C(=O)N2CCC[C@H]2C(=O)NCc2cc(Cl)ccc2CN)CC1 [Compound 2.18]
2. CN(CC1CCOCC1)C(=O)C[C@@H](NS(=O)(=O)Cc1ccccc1)C(=O)N1CCC[C@H]1C(=O)NCc1cc(Cl)ccc1CN [Compound 2.47, TFA]
3. NCc1ccc(Cl)cc1CNC(=O)[C@@H]1C[C@H](O)CN1C(=O)[C@@H](CCC(=O)N1CCOCC1)NS(=O)(=O)Cc1ccccc1 [Compound 2.22]

Found:
1: > 10 µM; 2: > 15 µM; 3: > 100 µM

Give me Ki for each of these compounds, listed below.
1. CC(=O)N1CCC(N(C)C(=O)C[C@@H](NS(=O)(=O)Cc2ccccc2)C(=O)N2CCC[C@H]2C(=O)NCc2cc(Cl)ccc2CN)CC1 [Compound 2.2]
2. NCc1ccc(Cl)cc1CNC(=O)[C@@H]1CCCN1C(=O)[C@@H](CC(=O)N1CC[C@@H](O)C1)NS(=O)(=O)Cc1ccccc1 [Compound 2.9]
3. NCc1ccc(Cl)cc1CNC(=O)[C@@H]1CCCN1C(=O)[C@@H](CCC(=O)N1CCOCC1)NS(=O)(=O)Cc1ccccc1 [Compound 2.1, TFA]
4. NCc1ccc(Cl)cc1CNC(=O)[C@@H]1CNCCN1C(=O)[C@@H](CC(=O)N1CCCCC1)NS(=O)(=O)Cc1ccccc1 [Compound 2.13]
5. NCc1ccc(Cl)cc1CNC(=O)[C@@H]1CCN1C(=O)[C@@H](CC(=O)N1CCNCC1)NS(=O)(=O)Cc1ccccc1 [Compound 2.50, TFA]
6. NCc1ccc(Cl)cc1CNC(=O)[C@@H]1CCCN1C(=O)[C@@H](CCC(=O)N1CCC(N)CC1)NS(=O)(=O)Cc1ccccc1 [Compound 2.32]
7. NCc1ccc(Cl)cc1CNC(=O)[C@@H]1CCCN1C(=O)[C@@H](CC(=O)N1CCOCC1)NS(=O)(=O)Cc1ccccc1 [Compound 2.36]

Found:
1. > 10 µM
2. > 10 µM
3. > 28 µM
4. > 100 µM
5. > 15 µM
6. > 20 µM
7. > 12 µM

* * *

# targetUnderTest: Human tissue-type plasminogen activator (h t-PA) (Homo sapiens, UniProt P00750)
# Construct: purchased Boehringer Ingelheim Actilyse
# Sequence (P00750 36-562): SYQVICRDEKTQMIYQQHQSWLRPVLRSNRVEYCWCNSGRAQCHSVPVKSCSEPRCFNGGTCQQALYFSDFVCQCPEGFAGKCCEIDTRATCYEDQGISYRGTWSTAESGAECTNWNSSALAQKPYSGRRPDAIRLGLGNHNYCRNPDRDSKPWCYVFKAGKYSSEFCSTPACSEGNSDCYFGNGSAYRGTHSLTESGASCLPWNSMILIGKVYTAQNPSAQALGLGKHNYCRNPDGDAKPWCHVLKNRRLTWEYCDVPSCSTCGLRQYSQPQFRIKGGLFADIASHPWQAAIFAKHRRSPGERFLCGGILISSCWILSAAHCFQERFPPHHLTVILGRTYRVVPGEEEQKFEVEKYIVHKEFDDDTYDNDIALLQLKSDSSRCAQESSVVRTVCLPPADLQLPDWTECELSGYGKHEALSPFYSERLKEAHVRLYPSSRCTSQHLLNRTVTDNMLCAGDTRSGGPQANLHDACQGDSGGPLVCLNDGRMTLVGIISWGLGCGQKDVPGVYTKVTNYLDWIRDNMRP
# assayProcedure: Inhibition of human tissue-type plasminogen activator (reference enzyme)
# Type: biochemical
# measurementConditions: Pefachrome tPA substrate; read-out: Ki h t-PA
pKi: −log10 of the molar value.
Would you kindly list pKi for each of these compounds?

Reference set, count: 5
NCc1ccc(Cl)cc1CNC(=O)[C@@H]1CCCN1C(=O)[C@@H](CC(=O)N1CCCCC1)NS(=O)(=O)Cc1ccccc1 [Compound 2.41]	< 4.82
CN1CCN(C(=O)C[C@@H](NS(=O)(=O)Cc2ccccc2)C(=O)N2CCC[C@H]2C(=O)NCc2cc(Cl)ccc2CN)CC1 [Compound 2.18]	< 4.30
NCc1ccc(Cl)cc1CNC(=O)[C@@H]1CCCN1C(=O)[C@@H](CC(=O)N1CC[C@H](O)C1)NS(=O)(=O)Cc1ccccc1 [Compound 2.10]	< 5.00
NCc1ccc(Cl)cc1CNC(=O)[C@@H]1CCCN1C(=O)[C@@H](CCC(=O)N1CCC(N)CC1)NS(=O)(=O)Cc1ccccc1 [Compound 2.32]	< 4.30
O=C(NCc1cc(Cl)ccc1-n1cnnn1)[C@@H]1C[C@H](O)CN1C(=O)[C@@H](CCC(=O)N1CCOCC1)NS(=O)(=O)Cc1ccccc1 [Compound 2.21]	< 4.70

Now for another entry.
Lookup: What value of measured pKi is listed for NCc1ccc(Cl)cc1CNC(=O)[C@@H]1C[C@@H](N)CN1C(=O)[C@@H](CCC(=O)N1CCOCC1)NS(=O)(=O)Cc1ccccc1 [Compound 2.25] ?
Found: < 4.30

* * *

Would you kindly list Ki for each of these compounds?
# targetUnderTest: Human tissue-type plasminogen activator (h t-PA) (Homo sapiens, UniProt P00750)
# Construct: purchased Boehringer Ingelheim Actilyse
# assayProcedure: Inhibition of human tissue-type plasminogen activator (reference enzyme)
# Format: biochemical
# measurementConditions: Pefachrome tPA substrate; read-out: Ki h t-PA

NCc1ccc(Cl)cc1CNC(=O)[C@@H]1C[C@H](O)CN1C(=O)[C@@H](CCC(=O)N1CCOCC1)NS(=O)(=O)Cc1ccccc1	> 100 µM

Give me Ki for each of these compounds, listed below.
1. NCc1ccc(Cl)cc1CNC(=O)[C@@H]1C[C@H](N)CN1C(=O)[C@@H](CC(=O)N1CCCCC1)NS(=O)(=O)Cc1ccccc1
2. NCc1ccc(Cl)cc1CNC(=O)[C@@H]1CCCN1C(=O)[C@@H](CCC(=O)N1CCOCC1)NC(=O)Cc1ccccc1
3. NCc1ccc(Cl)cc1CNC(=O)[C@@H]1CCCN1C(=O)[C@@H](CC(=O)N1CCCC1)NS(=O)(=O)Cc1ccccc1
4. NCc1ccc(Cl)cc1CNC(=O)[C@@H]1CCCN1C(=O)[C@@H](CC(=O)N1CCSCC1)NS(=O)(=O)Cc1ccccc1

Found:
["5.05 µM", "> 50 µM", "> 10 µM", "19 µM"]

Lookup: What value of measured Ki is listed for "NCc1ccc(Cl)cc1CNC(=O)[C@@H]1CCCN1C(=O)[C@@H](CC(=O)N1CC[C@@H](O)C1)NS(=O)(=O)Cc1ccccc1" ?
Found: > 20 µM
